Tested on: HCT-116 colon
Test: NCI-60 one-dose screen, 48 h
Settings: 10 µM unless noted
Description: Growth inhibition of the HCT-116 human tumor cell line is measured as a screen for anti-cancer activity. Cells are grown in 96 well plates and exposed to the test compound for 48 hours. Compounds are tested at a single concentration, which is 10^-5 M for most compounds. The reported endpoint is percent growth (GI% or GIPRCNT), where numbers from 0 - 100% represent growth inhibition, and numbers from -100% - 0 represent cell death. For example, a value of 40 represents 60% growth inhibition. […]
About 83,000 compounds went through this panel and 20% of them were active in at least one assay; those are over-represented in the sample as a whole. Active and inactive are the calls of the source. Rule for the calls: active = growth percent below 10; inactive = the rest.
Pick one: active, inactive

Outcome logged for CN1CCN(c2ccc3nc(-c4ccc(OCCCCN5CCN(CCCCN6C(=O)c7cccc8cccc(c78)C6=O)CC5)cc4)[nH]c3c2)CC1 in this assay:
inactive

Given CC1=C[C@H]2c3c(c(O)c(O)c4oc(-c5ccccc5)cc(=O)c34)[C@H](c3cc(O)c(O)c4oc(-c5ccccc5)cc(=O)c34)[C@H]2C(C)(C)C1 , state the outcome it received in this test.
active

Entry O=C(N(c1ccccc1)c1ccccc1)n1ccc2nc(Cl)nc(Cl)c21 : call = ?
inactive

Query: recorded result category for COc1cc(C(=O)/C=C/c2cccnc2Nc2ccc(Cl)cc2)cc(OC)c1OC in this test
active

Hello, I am checking results. What call was entered for COc1ccc(NC2=C(Sc3nc(C)cc(C)n3)C(=O)N(Cc3ccccc3)C2=O)cc1Cl ?
inactive

How did this test come out for CCNc1ncnc2c1cnn2C1CCCO1 (centres undefined) ?
inactive

Could you check what this test reported for COc1cc(C2CC(=O)c3ccccc3N2)cc(OC)c1OC (centres undefined) ?
inactive

Hey, what did the test say about Cc1c(/C=C/[N+](=O)[O-])ccc2c1[nH]c1ccccc12 ?
active

// return assay outcome for O=C1Nc2c(ccc(Cl)c2Cl)/C1=C\c1cc(C(F)(F)F)cc(C(F)(F)F)c1
active

Record request — test call for CC1=C(O)C(=O)C(C(C#N)(C#N)C(C#N)C#N)C1 (centres undefined)
inactive

Hey, what did the test say about CCOC(=O)c1c(C)oc2ncnc(N3CCN(C(=S)Nc4ccccc4)CC3)c12 ?
inactive

For C(=C\c1nccc2c1[nH]c1ccccc12)/c1ccccc1 , which call appears in the assay record?
inactive

What call does the record list for O=C1NC(=S)NC(=O)C1CC(=O)n1c(-c2ccccc2)nc2ccccc21 ?
inactive

# lookup: test call for c1ccc(Cn2cc(-c3nc4ccccc4s3)c3cccnc32)cc1
inactive

Per the records of this test, what outcome belongs to CON1C(=O)CC[C@]2(C)[C@H]3CC[C@@H]4C([C@@]5(C)CCC(=O)O5)CC[C@@]4(C)[C@]3(C)CC[C@H]2C1(C)C (some centres undefined) ?
inactive

What classification did CC1(C)CC[C@]2(C(=O)Nc3ccccn3)CC[C@]3(C)C(=CC[C@@H]4[C@@]5(C)C/C(=C/c6cccnc6)C(=O)C(C)(C)[C@@H]5CC[C@]43C)[C@H]2C1 end up with in this test?
inactive

Recorded test call requested for Cc1[nH]c(-c2ccc3cc[nH]c3c2)c2c1C(=O)CCCC2
inactive

For COc1cc(/C=C/C(=O)c2ccc(O)c(CN3CCN(c4cc5c(cc4F)c(=O)c(C(=O)O)cn5C4CC4)CC3)c2)cc(OC)c1OC , what call appears in the results of this test?
active

Query: recorded result category for CSc1ccc(-c2ccccc(=O)c2O)cc1 in this test
inactive

----------
Test system: NCI/ADR-RES ovarian
Assay: NCI-60 one-dose screen, 48 h
Conditions: 10 µM unless noted
The panel holds about 83,000 compounds, 20% with a hit somewhere; the sample as a whole holds those more often. Active and inactive are the calls of the source. How the source made its calls: active means growth percent below 10; inactive means the rest.
Tick one outcome: active, inactive

Given COc1ccc(C(=S)N2CCN(c3cccc(Cl)c3)CC2)cc1 , state the outcome it received in this test.
inactive

Please indicate how the test categorized N#Cc1c(-c2ccc(Cl)cc2)nc(N=Nc2c(O)[nH]c3ccc(Cl)cc23)nc1N1CCOCC1 .
inactive

Look up the recorded call for COc1ccc(SC2c3cc(OC)c(OC)cc3Oc3nc(N)c(C#N)c(N)c32)cc1 (configuration not stated) in this test.
active

Give the logged outcome of this assay for the following molecule: Cc1cc(N2CCOCC2)nc(NCc2cc(Nc3ccnc4cc(Cl)ccc34)ccc2F)n1
active

What classification did CCCCn1c(-c2ccc(C(=O)O/N=C(\N)c3ccc4c(c3)OCO4)cc2)nc(-c2ccccc2)c1-c1ccccc1 end up with in this test?
inactive

State the result this test recorded for C=CC(=O)Nc1cccc(-c2nc(SC)nc(Nc3ccccc3OC)c2C#N)c1 .
inactive

Called result for COc1ccc2c(c1)C(=O)/C(=C/c1cccnc1)CC2
inactive

State the result this test recorded for COc1cc(-c2nn(-c3ccc(C)cc3)cc2C(=O)O)ccc1O .
inactive

Record lookup: outcome of this test for CN(C)c1ccc(N=Nc2ccccn2)c(O)c1 ?
inactive

Could you check what this test reported for CCCCN(CCCC)CCCn1c(-c2ccccc2)ccc1-c1ccccc1 ?
inactive

Identify the outcome logged in this assay for the molecule shown: COc1nc2c(c(=O)n1C)CN(Cc1ccccc1)C=N2
inactive

Tell me the assay call for CCCSc1ccc2nc(NC(=O)OC)[nH]c2c1 please.
active

Tell me the recorded outcome of this test for Nc1ccn(-c2ccc(Br)cc2)c(=O)n1 .
inactive

State the result this test recorded for COc1cc2nc(N3CCCC3)nc(NCC3CCCCC3)c2cc1OC .
inactive

Recorded test call requested for Cc1ccc(C2Oc3ccccc3C3CC(c4cccs4)=NN32)cc1 (configuration not stated)
inactive

Hi, sorry to bother you, what did the test record for O=c1cc(/C(=C2/C=CC=N2)c2ccc[nH]2)c2cc(Cl)ccc2o1 ?
active

Please state the recorded outcome for this molecule: CNC(=O)c1cc(Oc2ccc(NC(=O)Nc3ccc(Cl)c(SC)c3)c(F)c2)ccn1
inactive

Returns: the outcome recorded for O=S(=O)(Nc1ccc(I)cc1F)c1ccc(-c2cnc(C3CC3)o2)cc1 in this assay.
inactive

What was the test verdict on C#CCOc1ccc2ncnc(NCc3cccc(NC(=O)CCl)c3)c2c1 ?
inactive

Lab log entry: N#Cc1nnn(-c2ccc(S(N)(=O)=O)cc2)c1NC(=O)CCl — outcome as called in the assay?
inactive

Given C=CC(=O)Nc1cccc(-c2nc(SC)nc(Nc3cccc(OC)c3)c2C#N)c1 , state the outcome it received in this test.
inactive

Status in this test for CC(=O)c1cc(C(=O)c2ccc3c(c2)Sc2ccccc2N3)n2ccccc12 ?
inactive

----------
Tested on: T-47D breast
Test: NCI-60 one-dose screen, 48 h (100 = growth as untreated, 0 = no growth, -100 = all killed)
Settings: 10 µM unless noted
About 83,000 compounds went through this panel and 20% of them were active in at least one assay; those are over-represented in the sample as a whole.
Please respond with reported growth for every item in the list.
Report only the number, with the unit % understood.

Consider the compound shown here: Cc1cc(N2CCOCC2)nc(NCc2cc(Nc3ccnc4cc(Cl)ccc34)ccc2F)n1 What is its recorded growth?
-34.9

Item Nc1ccc(S(=O)(=O)O)c2ccc(N=Nc3ccc(N=Nc4ccc(S(=O)(=O)O)cc4)c4ccccc34)c(O)c12 has what recorded growth?
124

Which measured growth value corresponds to CN(C)CCCNc1c2ccccc2nc2ccccc12 ?
68.5

Tell me the measured growth of O=c1cc(/C(=C2/C=CC=N2)c2ccc[nH]2)c2cc(Cl)ccc2o1 , please.
32

Which growth value belongs to COc1cc(Nc2cc(C)nc(N3CCN(c4ccnc5cc(Cl)ccc45)CC3)n2)cc(OC)c1 ?
8.17

----------
Tested on: UO-31 renal
Experiment: NCI-60 one-dose screen, 48 h (100 = growth as untreated, 0 = no growth, -100 = all killed)
Conditions: 10 µM unless noted
The panel holds about 83,000 compounds, 20% with a hit somewhere; the sample as a whole holds those more often.
measured_metric: growth (%)
Give the number; % is assumed, so skip it.

Which value of growth has been reported for COc1cccc(-c2nn(C(C)(C)C)cc2-c2ccnc(NCCCNS(=O)(=O)c3cccc4ccccc34)c2)c1 in the records?
91.1

For the molecule shown here, O=C(N/N=C/c1c[nH]c2ccccc12)c1cc(-c2ccccc2)on1 , give the reported growth.
60.7

Consider the molecule COc1cc(/C=C/C(=O)c2ccc(O)c(CN3CCN(c4cc5c(cc4F)c(=O)c(C(=O)O)cn5C4CC4)CC3)c2)cc(OC)c1OC and give its measured growth.
47.4

For CC(=O)Oc1ccc(Cl)cc1CN(C(C)=O)C1CCCCC1 , what is its reported growth?
90.5

Entry O=C(/C=C/c1cc(CN2CCOCC2)c(O)c2ncccc12)c1cc(CN2CCOCC2)c(O)c2ncccc12 : reported growth = ?
11.1

For the molecule shown here, CC1=C(O)C(=O)C(C(C#N)(C#N)C(C#N)C#N)C1 (stereo not given) , give the reported growth.
94.3

Entry CCCCC/C(C=C(C#N)C#N)=C/c1ccccc1 : reported growth = ?
34.7

Could you tell me which growth is on file for N#Cc1nnn(-c2ccc(S(N)(=O)=O)cc2)c1NC(=O)CCl ?
86.5

I am curious: what growth value has been reported for Nc1n[nH]c2ccc([C@@H]3Nc4ccc5cn[nH]c5c4[C@H]4C5CCC(C5)[C@@H]34)cc12 (stereo not given in full) ?
38.9

I have this molecule here, Cc1cc2nc3[nH]c4ccccc4c3nc2cc1C , and I need its recorded growth.
68.4
